FYI, the data here is from paper PMC5487681.

# TEST_TARGET: S. cerevisiae Pma1 (Saccharomyces cerevisiae, UniProt P05030)
# Sequence (P05030 whole entry): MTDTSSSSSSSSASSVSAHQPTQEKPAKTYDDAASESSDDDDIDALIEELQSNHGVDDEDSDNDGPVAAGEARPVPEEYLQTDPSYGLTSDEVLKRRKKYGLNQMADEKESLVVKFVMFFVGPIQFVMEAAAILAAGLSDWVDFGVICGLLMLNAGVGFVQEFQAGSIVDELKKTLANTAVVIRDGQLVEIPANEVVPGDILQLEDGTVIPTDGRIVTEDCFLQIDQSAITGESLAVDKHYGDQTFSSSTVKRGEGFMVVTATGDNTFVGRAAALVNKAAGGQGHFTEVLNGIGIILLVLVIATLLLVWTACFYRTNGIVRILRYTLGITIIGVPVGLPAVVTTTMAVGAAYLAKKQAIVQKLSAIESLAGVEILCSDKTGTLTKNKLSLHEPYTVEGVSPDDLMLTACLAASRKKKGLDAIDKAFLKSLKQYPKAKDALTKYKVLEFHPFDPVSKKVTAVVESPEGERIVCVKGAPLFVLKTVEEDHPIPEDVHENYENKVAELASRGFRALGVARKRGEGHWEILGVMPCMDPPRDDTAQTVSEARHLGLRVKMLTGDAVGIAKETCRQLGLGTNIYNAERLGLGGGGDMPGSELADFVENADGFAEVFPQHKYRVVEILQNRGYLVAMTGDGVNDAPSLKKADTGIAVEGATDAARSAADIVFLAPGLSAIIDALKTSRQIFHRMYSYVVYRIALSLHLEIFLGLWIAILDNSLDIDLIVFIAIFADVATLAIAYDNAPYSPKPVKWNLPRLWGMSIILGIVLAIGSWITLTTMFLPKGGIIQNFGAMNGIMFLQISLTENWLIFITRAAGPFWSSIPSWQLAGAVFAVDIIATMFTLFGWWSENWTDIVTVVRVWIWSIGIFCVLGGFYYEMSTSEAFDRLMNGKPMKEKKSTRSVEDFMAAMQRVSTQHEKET
# ASSAY_METHOD_TEXT: ATP hydrolysis assay, S. cerevisiae plasma membranes containing Pma1
# Type: biochemical
# Design: containing the full-length cDNA of the S. cerevisiae plasma membrane H^+-ATPase isoform PMA1; made in house; host or cells: S. cerevisiae RS72 (PMA1 cDNA under PMA1 promoter); also wild-type S. cerevisiae ATCC 9763
# RUN_PARAMETERS: Table 1; ATP hydrolysis at pH 6.5 (compounds marked b); 2 to 3 experiments; read-out: IC50 Pma1
Measured IC50 by item
Write the value in µM as a bare number.

Use these answered entries as a reference point.
MOLECULE	IC50 [µM]
CCOc1ccc2nc3cc(NC(=O)c4cccc(Br)c4)ccc3c(N)c2c1 [Compound 5]	4.4
Oc1cccc(Nc2nc(-c3ccc(Cl)c(Cl)c3)cs2)c1 [Compound 7]	5.5
Cc1c(-c2ccccc2)[o+]c2ccccc2c1C#Cc1ccccc1 [Compound 6]	5
CC1CCCCN1CC(O)Cn1c(-c2ccccc2)c(-c2ccccc2)c2ccc3ccccc3c21 (centres unmarked) [Compound 4]	3.7

Reported IC50 for O=C1/C(=C/c2ccc(-c3cc(Cl)ccc3Cl)o2)C=C(c2ccccc2)N1c1ccccc1O [Compound 1] was 0.04

----------
# TEST_TARGET: Ca^2+-ATPase (SERCA1a) (Oryctolagus cuniculus)
# Sequence (P04191 1-994 isoform P04191-2): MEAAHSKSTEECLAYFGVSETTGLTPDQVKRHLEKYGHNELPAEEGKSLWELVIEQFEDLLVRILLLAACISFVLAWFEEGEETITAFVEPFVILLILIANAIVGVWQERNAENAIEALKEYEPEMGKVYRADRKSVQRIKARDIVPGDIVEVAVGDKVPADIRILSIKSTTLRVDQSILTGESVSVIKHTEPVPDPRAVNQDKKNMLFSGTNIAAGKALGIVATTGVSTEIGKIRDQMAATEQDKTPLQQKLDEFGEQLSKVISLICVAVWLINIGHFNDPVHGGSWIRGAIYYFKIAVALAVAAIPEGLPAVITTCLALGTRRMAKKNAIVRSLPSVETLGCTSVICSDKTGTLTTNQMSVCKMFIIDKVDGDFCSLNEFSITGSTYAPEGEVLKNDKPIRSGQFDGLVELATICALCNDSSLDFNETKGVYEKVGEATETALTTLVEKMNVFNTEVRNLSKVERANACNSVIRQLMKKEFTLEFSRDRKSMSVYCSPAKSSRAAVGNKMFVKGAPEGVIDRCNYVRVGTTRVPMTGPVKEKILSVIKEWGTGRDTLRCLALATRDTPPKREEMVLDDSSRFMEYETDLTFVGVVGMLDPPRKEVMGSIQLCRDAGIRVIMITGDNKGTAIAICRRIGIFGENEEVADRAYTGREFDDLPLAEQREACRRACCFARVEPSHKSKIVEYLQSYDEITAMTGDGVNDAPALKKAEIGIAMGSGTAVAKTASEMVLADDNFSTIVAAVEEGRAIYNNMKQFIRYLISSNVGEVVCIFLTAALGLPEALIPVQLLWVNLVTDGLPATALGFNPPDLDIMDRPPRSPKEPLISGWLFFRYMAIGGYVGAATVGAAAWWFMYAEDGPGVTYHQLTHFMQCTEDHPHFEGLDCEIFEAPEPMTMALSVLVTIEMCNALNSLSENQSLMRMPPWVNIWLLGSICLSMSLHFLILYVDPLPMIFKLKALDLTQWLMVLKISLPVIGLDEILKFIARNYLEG
# ASSAY_METHOD_TEXT: ATP hydrolysis assay, SERCA
# Format: biochemical, rabbit
Residues, ends and D or L forms follow the SMILES beside them.
The entries below are paired with their reported pIC50.
Here pIC50 is given on a logarithmic scale as minus log10 of the concentration in mol/L.

Observe how each entry below is paired with its result.
COMPOUND	TEST_TARGET	NUMBER
CCOc1ccc2nc3cc(NC(=O)c4cccc(Br)c4)ccc3c(N)c2c1 [Compound 5]	Ca^2+-ATPase (SERCA1a) (Oryctolagus cuniculus)	6.34
CN1CCc2c(sc3c2C(=O)NC(c2ccc(-c4cccc(Cl)c4)o2)N3)C1 (centres unmarked) [Compound 13]	Ca^2+-ATPase (SERCA1a) (Oryctolagus cuniculus)	4.66
CN(C)CCCNc1ncnc2c1sc1nc(-c3ccccc3)c3c(c12)CCC3 [Compound 18]	Ca^2+-ATPase (SERCA1a) (Oryctolagus cuniculus)	4.16
CCCCOc1ccc(C2C(C#N)=C(N)Oc3cc(O)ccc32)cc1 (centres unmarked) [Compound 11]	Ca^2+-ATPase (SERCA1a) (Oryctolagus cuniculus)	4.80
CCCCc1nc2sc3c(NCCCN(C)C)ncnc3c2c2c1CCCC2 [Compound 14]	Ca^2+-ATPase (SERCA1a) (Oryctolagus cuniculus)	4.38

get_value(item= N=C(N)NCCC[C@@H](N)C(=O)N[C@H](CCCNC(=N)N)C(=O)N[C@H](CCCNC(=N)N)C(=O)N[C@H](Cc1ccccc1)C(=O)N[C@H](Cc1c[nH]c2ccccc12)C(=O)N[C@H](Cc1c[nH]c2ccccc12)C(=O)N[C@H](Cc1ccccc1)C(=O)N[C@H](CCCNC(=N)N)C(=O)N[C@H](CCCNC(=N)N)C(=O)N[C@H](CCCNC(=N)N)C(N)=O [BM2, reference compound] (HELM PEPTIDE1{[dR].[dR].[dR].[dF].[dW].[dW].[dF].[dR].[dR].[dR].[am]}$$$$V2.0) , readout=pIC50) returns 5.96

pIC50 in this record for CC1CCCCN1CC(O)Cn1c(-c2ccccc2)c(-c2ccccc2)c2ccc3ccccc3c21 (centres unmarked) [Compound 4] : 5.39

# pIC50 of O=C1/C(=C/c2ccc(-c3cc(Cl)ccc3Cl)o2)C=C(c2ccccc2)N1c1ccccc1O [Compound 1] = 4.76

Lab note: measured pIC50 of CN(C)CCCNc1ncnc2c1sc1nc(N3CCCCC3)c3c(c12)CCCC3 [Compound 16] was 4.95
